assay: Dissolution rate of about 100 mg SAHA API before encapsulation (USP Dissolution Apparatus II, 900 mL 2.0% Tween, 37±0.5° C., 100 rpm, HPLC); type: physicochemical; conditions: 10 minutes
Known Average SAHA % Dissolved at Time, minutes 10 of a selection of molecules
metric name: Average SAHA % Dissolved at Time, minutes 10 (%)

[
  {
    "molecule": "O=C(CCCCCCC(=O)Nc1ccccc1)NO [1008D, suberoylanilide hydroxamic acid]",
    "unit info": "%",
    "measurement": 26.8
  },
  {
    "molecule": "O=C(CCCCCCC(=O)Nc1ccccc1)NO [1376-C-RO-02, suberoylanilide hydroxamic acid]",
    "unit info": "%",
    "measurement": 31.1
  },
  {
    "molecule": "O=C(CCCCCCC(=O)Nc1ccccc1)NO [1136-1136-00-001, suberoylanilide hydroxamic acid]",
    "unit info": "%",
    "measurement": 38.2
  },
  {
    "molecule": "O=C(CCCCCCC(=O)Nc1ccccc1)NO [1007D, suberoylanilide hydroxamic acid]",
    "unit info": "%",
    "measurement": 37.8
  }
]
